Test: IUF_NPC2a_radial_glia_migration_72hr: Leibniz Research Institute for Environmental Medicine (IUF) 72-hour Neural Progenitor Cell Migration Assay for Radial Glia Migration (NPC2a) (AID 2284299)
Description: IUF_NPC2-5 is a cell-based, multiplexed assay that uses hNPC, a human primary neural progenitor cells, with measurements taken at 72 or 120 hours after chemical dosing in a 96-well plate. […] The processes radial glia migration, neuronal and oligodendrocyte migration as well as neuronal differentiation, neuronal morphology and oligodendrocyte differentiation are studied using automated phase contrast imaging and automated fluorescence imaging in combination with high content image analysis. […]
The source made the active and inactive calls. How the source made its calls: active means hit-call score of the fitted dose curve at least 0.9, where 1 is the maximum; inactive means score below 0.9.
Pick one: active, inactive

These recorded examples may help you get a feel for the data.
compound | label.value
[O-][Cl+3]([O-])([O-])O | inactive
COP(=O)(OC)SCN1C(=O)c2ccccc2C1=O | inactive
CNC1(c2ccccc2Cl)CCCCC1=O (stereo unspecified) | inactive
C/C(=C/C=C/[C@@H](C)C(=O)O)[C@H]1CN[C@H](C(=O)O)[C@H]1CC(=O)O | inactive
CC1(C)C(C=C(Cl)Cl)[C@H]1C(=O)O[C@H](C#N)c1cccc(Oc2ccccc2)c1 (stereo partly specified) | inactive

Alright, here's another compound for you.
What classification did CC1(C)[C@H](C=C(Cl)Cl)[C@H]1C(=O)OCc1c(F)c(F)cc(F)c1F end up with in this test? inactive

---

experiment: CCTE_Shafer_MEA_dev_correlation_coefficient_mean: CCTE's Neural Network Formation Assay for Mean Correlation Coefficient, Shafer Lab (AID 2284093)
Active and inactive are the calls of the source. How the source made its calls: active means hit-call score of the fitted dose curve at least 0.9, where 1 is the maximum; inactive means score below 0.9.
Your response should consist of one outcome taken from true (1) for active, false (0) for inactive

compound | label.value
[Cd+2].[Cl-].[Cl-] | true (1)

Consider the additional compound presented here.
// outcome(item) with item = CC(=O)[O-].[Tl+] false (0)

---

assay: BSK_BE3C_SRB: Viability Assessment in the BioMAP Diversity Plus: BE3C Assay (AID 2283028); conditions: primary human bronchial epithelial cells;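 further: measured 24 h after chemical dosing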
Calls of active or inactive are those of the source. Rule for the calls: active = hit-call score of the fitted dose curve at least 0.9, where 1 is the maximum; inactive = score below 0.9.
Give your call using only these classes: active, inactive

Worked cases, answers included:
compound | label.value
CC(C)CCCCCCCOP(=O)(Oc1ccccc1)Oc1ccccc1 | active
COc1ccc(CO)cc1 | inactive
O=S(=O)(c1ccccc1)c1ccccc1 | inactive
C=CC(=O)OCC(CC)CCCC (stereo unspecified) | inactive
COC(C)(C)CCC[C@H](C)C/C=C/C(C)=C/C(=O)OC(C)C | inactive

Could you please tell me the result logged for O=C1C(Cl)=C(Cl)C(=O)C(Cl)=C1Cl in this assay? inactive

For CC(C)(C)C(O)C(Oc1ccc(-c2ccccc2)cc1)n1cncn1 (stereo unspecified) , what call appears in the results of this test? inactive

Hello, I am checking results. What call was entered for N#CCCCCC#N ? inactive

Any idea what this test logged for O=C1C=CC(=O)C=C1 ? inactive

Hi, sorry to bother you, what did the test record for CCc1cc(C)cc(CC)c1-c1c(OC(=O)C(C)(C)C)n2n(c1=O)CCOCC2 ? inactive

Test call for this compound, please: O=C(CCl)c1ccccc1 inactive

---

experiment: ATG_M_61_CIS: Attagene CIS-FACTORIAL HepG2 Assay for M61 Transcription Factor (Internal Marker) (AID 2282937); conditions: HepG2 Attagene CIS-FACTORIAL M61 internal marker reporter; actives raise or lower the signal
Activity calls are given as the source filed them. The calls were made as follows: active = hit-call score of the fitted dose curve at least 0.9, where 1 is the maximum; inactive = score below 0.9.
readout.type: outcome

compound.smiles | result
CCC(=O)c1ccc(Cl)cc1 | inactive
O=[N+]([O-])c1ccc(Cl)cc1 | inactive
CCN(CC)C(=S)S | inactive
Cc1ccc(N(SC(F)(Cl)Cl)S(=O)(=O)N(C)C)cc1 | inactive
C[C@]12CC[C@H](O)C[C@H]1CC[C@@H]1[C@@H]2C[C@@H](O)[C@]2(C)[C@@H](C3=CC(=O)OC3)CC[C@]12O | inactive

Here is another compound to look at.
Complete the entry with outcome for CC1(C)C(=O)NC(=O)NC1=O inactive
